Hello, the source for this data is patent CN108239149A, in case you need it.

# tgt: T1, 融合至人IgG1 Fc段的人PD-L1胞外结构域的重组蛋白PD-L1-Fc (GenScript, Z03371) (human, UniProt Q9NZQ7 19-238, biotin-labelled in the PD-1 competition ELISA (site not stated))
# T1 construct: extracellular domain; Bought reagent (GenScript Z03371); also called 重组PD-L1-Fc; 生物素标记的PD-L1-Fc; not shown: Human IgG1 Fc segment
# experimentalProtocol: indirect ELISA, PD-L1-Fc coated at 0.5 μg/ml, antibody titrated
measureName: EC50
Please make sure the unit comes right after the number.

Lab book: EC50 of 29A8H8C7 (antibody, V domains shown, Mouse hybridoma clone; Made recombinantly as variable region + constant region in HEK293-6E) VH: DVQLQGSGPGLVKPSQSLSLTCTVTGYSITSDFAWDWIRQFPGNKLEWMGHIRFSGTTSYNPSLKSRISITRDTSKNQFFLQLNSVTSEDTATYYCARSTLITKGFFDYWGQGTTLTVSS VL: DIVMTQSHKFMSTSVGGRVSITCKASQDVSPAVAWYQQKPGQSPKLLIYWASTRHTGVPDRFTGSGSGTDFTLTISSVQTEDLALYYCQQHYSTPWTFGGGTKLEIK noted as 4.98 ng/mL
